# log10 of EC50 per entry
measured-target: T1, recombinant human soluble gpNMB (recombinant human gpNMB-FLAG-His) (human, UniProt Q14956 23-498)
T1 sequence: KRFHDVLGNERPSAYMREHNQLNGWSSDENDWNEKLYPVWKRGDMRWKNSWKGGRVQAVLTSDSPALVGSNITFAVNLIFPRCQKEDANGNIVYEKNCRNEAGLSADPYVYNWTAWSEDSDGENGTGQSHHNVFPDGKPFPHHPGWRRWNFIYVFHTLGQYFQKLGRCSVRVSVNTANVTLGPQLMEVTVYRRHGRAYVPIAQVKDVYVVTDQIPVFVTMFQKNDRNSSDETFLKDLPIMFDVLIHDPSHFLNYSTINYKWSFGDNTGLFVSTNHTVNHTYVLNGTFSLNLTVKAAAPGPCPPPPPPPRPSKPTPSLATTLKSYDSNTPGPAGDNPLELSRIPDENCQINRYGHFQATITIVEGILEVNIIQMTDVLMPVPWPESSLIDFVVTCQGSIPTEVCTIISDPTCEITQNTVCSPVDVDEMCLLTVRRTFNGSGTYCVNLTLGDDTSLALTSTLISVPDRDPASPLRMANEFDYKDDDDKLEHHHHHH
protocol-description: antigen ELISA
recorded-metric: log10 of EC50 (log10 of the value in nM)

binder	log10 of EC50
hGPN18-2_H2L3 VL T102A (antibody, V domains shown) VH: QVQLVQSGPGLVQPTQTLTLTCSFSGFSLSTSVMGVGWIRQPSGKGLEWLADIWWDDDKDYNPSLKSRLTISKDTSKNQVVLTMTNMDTVDTATYYCARTYYSNYEYYGMDYWGQGTLVTVSS VL: DIVMTQSPDSLAVSLGERATINCRSSQTIILSNGNTYLEWYQQKPGQPPKLLIYKVSNRFSGVPDRFSGSGSGTDFTLTISSLQAEDVAVYYCFQGSHVPFAFGSGTKLEIKR	0.67
hGPN18-2_H2L3 VL S97A (antibody, V domains shown) VH: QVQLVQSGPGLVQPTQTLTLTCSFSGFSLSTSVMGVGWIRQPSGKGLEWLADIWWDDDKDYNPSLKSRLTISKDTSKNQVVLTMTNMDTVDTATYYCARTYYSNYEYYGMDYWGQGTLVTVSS VL: DIVMTQSPDSLAVSLGERATINCRSSQTIILSNGNTYLEWYQQKPGQPPKLLIYKVSNRFSGVPDRFSGSGSGTDFTLTISSLQAEDVAVYYCFQGAHVPFTFGSGTKLEIKR	0.52
hGPN18-2_H2L3 VL F94A (antibody, V domains shown) VH: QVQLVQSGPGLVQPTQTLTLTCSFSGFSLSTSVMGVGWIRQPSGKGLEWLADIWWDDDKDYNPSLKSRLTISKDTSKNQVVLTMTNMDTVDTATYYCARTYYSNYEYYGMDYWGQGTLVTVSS VL: DIVMTQSPDSLAVSLGERATINCRSSQTIILSNGNTYLEWYQQKPGQPPKLLIYKVSNRFSGVPDRFSGSGSGTDFTLTISSLQAEDVAVYYCAQGSHVPFTFGSGTKLEIKR	1.26
hGPN18-2_H2L3 VL H98A (antibody, V domains shown) VH: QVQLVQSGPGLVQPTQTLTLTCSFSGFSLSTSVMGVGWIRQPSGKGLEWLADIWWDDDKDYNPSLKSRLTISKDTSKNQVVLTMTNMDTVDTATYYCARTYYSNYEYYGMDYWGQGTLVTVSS VL: DIVMTQSPDSLAVSLGERATINCRSSQTIILSNGNTYLEWYQQKPGQPPKLLIYKVSNRFSGVPDRFSGSGSGTDFTLTISSLQAEDVAVYYCFQGSAVPFTFGSGTKLEIKR	0.76
hGPN18-2_H2L3 VL R24A (antibody, V domains shown) VH: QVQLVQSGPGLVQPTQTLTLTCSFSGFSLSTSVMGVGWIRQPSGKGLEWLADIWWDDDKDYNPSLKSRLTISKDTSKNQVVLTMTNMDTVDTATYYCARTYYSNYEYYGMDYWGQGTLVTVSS VL: DIVMTQSPDSLAVSLGERATINCASSQTIILSNGNTYLEWYQQKPGQPPKLLIYKVSNRFSGVPDRFSGSGSGTDFTLTISSLQAEDVAVYYCFQGSHVPFTFGSGTKLEIKR	0.67
hGPN18-2_H2L3 VL Y37A (antibody, V domains shown) VH: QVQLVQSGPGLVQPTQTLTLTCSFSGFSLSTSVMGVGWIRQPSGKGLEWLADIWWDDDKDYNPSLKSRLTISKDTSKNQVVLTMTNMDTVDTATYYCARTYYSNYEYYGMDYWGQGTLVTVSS VL: DIVMTQSPDSLAVSLGERATINCRSSQTIILSNGNTALEWYQQKPGQPPKLLIYKVSNRFSGVPDRFSGSGSGTDFTLTISSLQAEDVAVYYCFQGSHVPFTFGSGTKLEIKR	1.43
hGPN18-2_H2L3 VL L38A (antibody, V domains shown) VH: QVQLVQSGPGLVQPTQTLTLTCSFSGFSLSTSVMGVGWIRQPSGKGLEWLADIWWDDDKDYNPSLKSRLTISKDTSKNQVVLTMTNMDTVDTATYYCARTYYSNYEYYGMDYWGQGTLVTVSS VL: DIVMTQSPDSLAVSLGERATINCRSSQTIILSNGNTYAEWYQQKPGQPPKLLIYKVSNRFSGVPDRFSGSGSGTDFTLTISSLQAEDVAVYYCFQGSHVPFTFGSGTKLEIKR	0.62
hGPN18-2_H2L3 VL I29A (antibody, V domains shown) VH: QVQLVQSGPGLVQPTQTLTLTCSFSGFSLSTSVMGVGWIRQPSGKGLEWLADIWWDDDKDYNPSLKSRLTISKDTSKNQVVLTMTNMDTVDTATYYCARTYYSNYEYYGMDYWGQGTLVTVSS VL: DIVMTQSPDSLAVSLGERATINCRSSQTAILSNGNTYLEWYQQKPGQPPKLLIYKVSNRFSGVPDRFSGSGSGTDFTLTISSLQAEDVAVYYCFQGSHVPFTFGSGTKLEIKR	0.78
hGPN18-2_H2L3 VL R59A (antibody, V domains shown) VH: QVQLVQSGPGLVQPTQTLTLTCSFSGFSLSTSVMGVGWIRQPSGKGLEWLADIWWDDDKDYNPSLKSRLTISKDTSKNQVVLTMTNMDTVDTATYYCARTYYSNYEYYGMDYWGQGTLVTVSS VL: DIVMTQSPDSLAVSLGERATINCRSSQTIILSNGNTYLEWYQQKPGQPPKLLIYKVSNAFSGVPDRFSGSGSGTDFTLTISSLQAEDVAVYYCFQGSHVPFTFGSGTKLEIKR	0.37
hGPN18-2_H2L3 (antibody, V domains shown, humanized; also called humanized anti-gpNMB antibody H2L3) VH: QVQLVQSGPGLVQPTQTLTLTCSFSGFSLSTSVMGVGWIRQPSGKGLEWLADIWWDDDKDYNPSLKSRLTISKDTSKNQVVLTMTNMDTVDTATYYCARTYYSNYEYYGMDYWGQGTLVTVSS VL: DIVMTQSPDSLAVSLGERATINCRSSQTIILSNGNTYLEWYQQKPGQPPKLLIYKVSNRFSGVPDRFSGSGSGTDFTLTISSLQAEDVAVYYCFQGSHVPFTFGSGTKLEIKR	0.64
